These measurements were taken from the Human Domainome abundance scans (Beltran et al. 2025).

B1: Pre-mRNA-processing factor 40 homolog B, residues 274 to 332; numbered along this chain, Q6NWY9 (parent)
chain: SNREKAKQAFKELLRDKAVPSNASWEQAMKMVVTDPRYSALPKLSEKKQAFNAYKAQRE

Variants of: B1
Assay: abundance fitness (aPCA) (normalised: wild type 0, dead -1); higher = more abundant; growth selection in yeast, the domain comes from the species named
Conditions: Homo sapiens
Note to self: values exactly at -0.01 are True. So abundance fitness at or above -0.01 is True, below is False.

- variant_name: "R3I"
  assigned_class: "True"
- variant_name: "A18E"
  assigned_class: "False"
- variant_name: "V19A"
  assigned_class: "False"
- variant_name: "A40Q"
  assigned_class: "False"
- variant_name: "E26D"
  assigned_class: "False"
- variant_name: "S39E"
  assigned_class: "True"
- variant_name: "N2T"
  assigned_class: "True"
- variant_name: "F10E"
  assigned_class: "False"
